Test system: MCF7 (MCF7/ATCC) cells
Test: Cell viability (cell kill) assay, nuclear counts
Type: cell-based
Conditions: MCF7; Table 12; 3 days
Protocol: PRLR-overexpressing cells, including HEK293, PC3, MCF7 and NCI-N87, were generated to assess the ability of anti-PRLR conjugated antibodies to reduce cell viability. […] Next, the ability of anti-PRLR-DM1 antibody-drug conjugates (i.e., anti-PRLR antibodies conjugated to DM1 via a non-cleavable linker [SMCC]) to reduce cell viability was determined using in vitro cell based assays. […] IC50 values were determined from a four-parameter logistic equation over a 10-point response curve (GraphPad Prism). […]

COMPOUND	UNITS OF MEASURE	IC50
COc1cc2cc(c1Cl)N(C)C(=O)C[C@H](OC(=O)[C@H](C)N(C)C(=O)CCS)[C@]1(C)O[C@H]1[C@H](C)[C@@H]1C[C@@](O)(NC(=O)O1)[C@H](OC)/C=C/C=C(\C)C2 [DM1 (free drug)]	nM	1.17
